test: Cytotoxicity against human PBMC cells; assay type: toxicity, cell-based
Reported property: CC50
Please provide the amount together with its unit, number first.

Incoming: # lookup: CC50 of Nc1cc(Cl)nc(Sc2ccccc2)n1
Outgoing: 207 µM

---

experiment: Oral bioavailability in rat; type: ADME, organism-based; conditions: in vivo
Reported property: bioavailability
Please provide the amount together with its unit, number first.

Incoming: # lookup: bioavailability of CCc1c(CC2CCCCC2)nc(SCC(=O)c2ccc(OP(=O)(OC)OC)cc2)[nH]c1=O
Outgoing: 14.6%

---

assay: Selectivity index, ratio of CC50 for Vero cells to EC50 for antiviral activity against HIV-1 infected in Vero cells; format: toxicity, cell-based; conditions: monkey, read-out: Ratio CC50/EC50
Reported property: selectivity ratio
A bare number is all that is needed in reply.

Incoming: # lookup: selectivity ratio of Cc1c(Sc2ccccc2)n(COCCO)c(=O)[nH]c1=O
Outgoing: 106

---

system: Human immunodeficiency virus 1; assay: Antiviral activity against wild type HIV-1 NL4-3 infected in human MT4 cells assessed as reduction in viral replication; assay type: functional, organism-based; details: Human immunodeficiency virus 1, NL4-3, MT4; read-out: ED50 (the source's name)
Recorded pEC50, one value per entry.
FYI, pEC50 means -log10 of a concentration in mol per litre.

Below, 3 molecules whose answers are already recorded.
1) CCc1c(Cc2cccc3ccccc23)[nH]c(SCSC)nc1=O ... 5.34
2) CCSCSc1nc(=O)c(CC)c(Cc2cccc3ccccc23)[nH]1 ... 5.57
3) CCc1c(Cc2cccc3ccccc23)n(CSC)c(=O)[nH]c1=O ... 6.43

Now for a further molecule.
Incoming: # lookup: pEC50 of CCOCn1c(Cc2cccc3ccccc23)c(CC)c(=O)[nH]c1=O
Outgoing: 7.30

---

tested on: Human immunodeficiency virus 1; assay: Antiviral activity against HIV-1 A17 infected in human […] cells at 0.03 MOI assessed as reduction in viral replication incubated for 2 hrs by ELISA analysis; type: functional, organism-based; conditions: Human immunodeficiency virus 1, A17, C8166, 2 h
Reported property: pEC50
FYI, pEC50 means -log10 of a concentration in mol per litre.

Incoming: # lookup: pEC50 of CCc1c(CC2CCCCC2)nc(SCC(=O)c2ccccc2)[nH]c1=O
Outgoing: 4.41

---

assay: Selectivity index, ratio of CC50 for human C8166 cells to EC50 for antiviral activity against HIV-1 IIIB infected in human C8166 cells; format: toxicity, cell-based; settings: read-out: Ratio CC50/EC50
Recorded selectivity ratio, one value per entry.
A bare number is all that is needed in reply.

1. CCc1c(CC23CC4CC(CC(C4)C2)C3)nc(SCC(=O)c2ccc(OC)cc2)[nH]c1=O ... 172

Now for a further compound.
Incoming: # lookup: selectivity ratio of CCc1c(CC23CC4CC(CC(C4)C2)C3)nc(SCC(=O)c2ccccc2)[nH]c1=O
Outgoing: 107

---

Recorded pEC50, one value per entry.
tested on: Human immunodeficiency virus 1; assay: Antiviral activity against wild type HIV-1 NL4-3 infected in human MT4 cells assessed as reduction in viral replication measured for 72 hrs by ELISA analysis; format: functional, organism-based; details: Human immunodeficiency virus 1, NL4-3, MT4, 72 h
FYI, pEC50 means -log10 of a concentration in mol per litre.

Below, 2 molecules whose answers are already recorded.
1) CCc1c(C(C)c2c(F)cccc2F)nc(SC/C=C/c2ccc([N+](=O)[O-])cc2)[nH]c1=O (stereo not drawn) ... 8.40
2) Cc1c(C(C)c2c(F)cccc2F)nc(N(C)C(C)C)[nH]c1=O (stereo not drawn) ... 8.30

Now for a further molecule.
Incoming: # lookup: pEC50 of Cc1c(C(C)c2c(F)cccc2Cl)nc(N(C)C)[nH]c1=O (stereo not drawn)
Outgoing: 8.52

---

Recorded CC50 at 72 h, one value per entry.
experiment: Cytotoxicity against african green monkey Vero cells assessed as reduction in cell viability measured after 72 hrs by MTT assay; assay type: toxicity, cell-based; conditions: chlorocebus sabaeus

1) CC(c1cc(O)nc(SC2CCCCC2)n1)c1c(F)cccc1F (stereo not drawn) ... > 200 µM
2) CCC(C)Sc1nc(O)cc(Cc2c(F)cccc2F)n1 (stereo not drawn) ... > 200 µM

Incoming: # lookup: CC50 at 72 h of CC(C)CCSc1nc(Cc2c(F)cccc2F)cc(=O)[nH]1
Outgoing: > 200 µM

Data provenance: ChEMBL document CHEMBL6115028
